Assay: Oral bioavailability in rat
Assay type: ADME, organism-based
Details: in vivo
Assign bioavailability to each entry below.
Answer format: numeric, % implied, no suffix.

Give bioavailability for the following compound: COC[C@H](C)Oc1cc(Oc2ccc(C(=O)N(C)C)cc2)cc(C(=O)Nc2cc[nH]n2)c1 27

Tell me measured bioavailability for C[C@@H](CO)Oc1cc(Oc2ccc(C(=O)N3CCC3)cc2)cc(C(=O)Nc2ccn(C)n2)c1 please. 30

Consider the compound COC[C@H](C)Oc1cc(Oc2ccc(S(C)(=O)=O)cc2)cc(C(=O)Nc2nccs2)c1 and give its recorded bioavailability. 28

Output measured bioavailability for this item: COC[C@H](C)Oc1cc(Oc2ccc(S(C)(=O)=O)cc2)cc(C(=O)Nc2nc(C)ns2)c1 71

Return bioavailability for the following compound: C[C@@H](CO)Oc1cc(Oc2ccc(C(=O)N(C)C)cc2)cc(C(=O)Nc2ccn(C)n2)c1 78

---

Biological target: Hexokinase-4 (Homo sapiens)
Sequence (P35557 whole entry): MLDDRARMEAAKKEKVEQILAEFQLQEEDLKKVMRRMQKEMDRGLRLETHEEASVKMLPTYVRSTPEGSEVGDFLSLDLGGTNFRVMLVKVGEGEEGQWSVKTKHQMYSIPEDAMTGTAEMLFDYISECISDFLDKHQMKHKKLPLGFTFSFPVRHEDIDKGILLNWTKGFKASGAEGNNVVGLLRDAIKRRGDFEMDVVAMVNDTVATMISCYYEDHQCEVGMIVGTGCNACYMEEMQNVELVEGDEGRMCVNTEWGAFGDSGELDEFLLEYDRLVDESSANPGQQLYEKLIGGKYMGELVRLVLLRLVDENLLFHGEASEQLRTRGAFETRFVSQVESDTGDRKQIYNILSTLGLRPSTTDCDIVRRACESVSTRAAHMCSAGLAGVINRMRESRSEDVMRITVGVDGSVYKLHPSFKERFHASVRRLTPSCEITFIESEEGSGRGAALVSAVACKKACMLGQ
Assay: Activation of glucokinase (unknown origin)
Give measured pEC50 for each item. Keep answers brief.
Lab note: report pEC50 as minus log10 of the concentration in molar units, number only.

Return pEC50 for the following molecule: C[C@@H](CO)Oc1cc(Oc2ccc(C(=O)N(C)C)cc2)cc(C(=O)Nc2ccn(C)n2)c1 7.40

For the molecule C[C@@H](CO)Oc1cc(Oc2ccc(C(=O)N3CCC3)cc2)cc(C(=O)Nc2ccn(C)n2)c1 , give its reported pEC50. 7.52

Query pEC50 for COC[C@H](C)Oc1cc(Oc2ccc(C(=O)N(C)C)cc2)cc(C(=O)Nc2cc[nH]n2)c1 7.30

---

readout: IC50

Please look at COC[C@H](C)Oc1cc(Oc2ccc(C(=O)N(C)C)cc2)cc(C(=O)Nc2cc[nH]n2)c1 and tell me its recorded IC50 on Voltage-gated inwardly rectifying potassium channel KCNH2 (Homo sapiens). > 95 µM

Look up and report IC50, with Voltage-gated inwardly rectifying potassium channel KCNH2 (Homo sapiens) as system, for C[C@@H](CO)Oc1cc(Oc2ccc(C(=O)N(C)C)cc2)cc(C(=O)Nc2ccn(C)n2)c1 > 100 µM

Enter recorded IC50 with Voltage-gated inwardly rectifying potassium channel KCNH2 (Homo sapiens) for C[C@@H](CO)Oc1cc(Oc2ccc(C(=O)N3CCC3)cc2)cc(C(=O)Nc2ccn(C)n2)c1 here. 70 µM

---

Experiment: Clearance in dog
Type: ADME, organism-based, Canis lupus familiaris
Conditions: in vivo
Answer each item with its documented clearance.
Quick reminder: number only, in mL/min/kg, skip the unit.

Note down clearance recorded for COC[C@H](C)Oc1cc(Oc2ccc(S(C)(=O)=O)cc2)cc(C(=O)Nc2nccs2)c1 7.2

Supply measured clearance of C[C@@H](CO)Oc1cc(Oc2ccc(C(=O)N3CCC3)cc2)cc(C(=O)Nc2ccn(C)n2)c1 in your reply. 14

Read off the recorded clearance for COC[C@H](C)Oc1cc(Oc2ccc(S(C)(=O)=O)cc2)cc(C(=O)Nc2nc(C)ns2)c1 0.5

---

Test: Clearance in rat
Type: ADME, organism-based
Conditions: in vivo
readout: clearance

Consider the compound COC[C@H](C)Oc1cc(Oc2ccc(S(C)(=O)=O)cc2)cc(C(=O)Nc2nccs2)c1 . State its measured clearance. 11 mL/min/kg

Determine from records and report clearance for COC[C@H](C)Oc1cc(Oc2ccc(C(=O)N(C)C)cc2)cc(C(=O)Nc2cc[nH]n2)c1 34 mL/min/kg

Please list clearance recorded for the compound COC[C@H](C)Oc1cc(Oc2ccc(S(C)(=O)=O)cc2)cc(C(=O)Nc2nc(C)ns2)c1 5.6 mL/min/kg

Indicate the recorded clearance value for this compound: C[C@@H](CO)Oc1cc(Oc2ccc(C(=O)N(C)C)cc2)cc(C(=O)Nc2ccn(C)n2)c1 31 mL/min/kg

Using known records, supply clearance for C[C@@H](CO)Oc1cc(Oc2ccc(C(=O)N3CCC3)cc2)cc(C(=O)Nc2ccn(C)n2)c1 14 mL/min/kg

---

Experiment: Volume of distribution at steady state in rat
Format: ADME, organism-based
Details: in vivo, read-out: Vdss
Would you kindly list Vd for each of these molecules?

Please report the measured Vd for COC[C@H](C)Oc1cc(Oc2ccc(C(=O)N(C)C)cc2)cc(C(=O)Nc2cc[nH]n2)c1 1.1 L/kg

Name the recorded Vd of the item C[C@@H](CO)Oc1cc(Oc2ccc(C(=O)N3CCC3)cc2)cc(C(=O)Nc2ccn(C)n2)c1 in your answer. 1.8 L/kg

For the molecule COC[C@H](C)Oc1cc(Oc2ccc(S(C)(=O)=O)cc2)cc(C(=O)Nc2nccs2)c1 , report Vd. 0.3 L/kg

Name the recorded Vd of the item C[C@@H](CO)Oc1cc(Oc2ccc(C(=O)N(C)C)cc2)cc(C(=O)Nc2ccn(C)n2)c1 in your answer. 1.9 L/kg

Identify Vd associated with the molecule COC[C@H](C)Oc1cc(Oc2ccc(S(C)(=O)=O)cc2)cc(C(=O)Nc2nc(C)ns2)c1 0.2 L/kg

---

Test: Volume of distribution at steady state in dog
Assay type: ADME, organism-based, Canis lupus familiaris
Settings: in vivo, read-out: Vdss
For each of the molecules below, state its Vd.
Give just the numeric value; L/kg need not be written.

State, in one line, measured Vd of C[C@@H](CO)Oc1cc(Oc2ccc(C(=O)N3CCC3)cc2)cc(C(=O)Nc2ccn(C)n2)c1 1.3

Return the recorded Vd value; entry: COC[C@H](C)Oc1cc(Oc2ccc(S(C)(=O)=O)cc2)cc(C(=O)Nc2nccs2)c1 0.8

Using the record for COC[C@H](C)Oc1cc(Oc2ccc(S(C)(=O)=O)cc2)cc(C(=O)Nc2nc(C)ns2)c1 , state its measured Vd. 0.3
